The following compounds are listed with their measured half-life values.
# Species on record: Homo sapiens
# procedureSummary: Metabolic stability in 80% human plasma assessed as half life at pH 7.4
Numbers only; they are read as min.

Record excerpt, results attached:
> print(dat)
                               linenotation  measvalue
1  COC(=O)CN1C(=O)[C@H](Cc2ccc(OC(C)=O)c(OC(C)=O)c2)NC1(C)C       23.5
2  CCC1(CC)N[C@@H](Cc2ccc(O)c(O)c2)C(=O)N1CC(=O)OC       47.6

Qu. Consider the compound shown here: `COC(=O)CN1C(=O)[C@H](Cc2ccc(O)c(O)c2)NC1(C)C` What is its recorded half-life?
Ans. 42.8
